Tested on: CK1α (Homo sapiens, UniProt P48729+Q96SW2)
Construct: CSNK1A1-HiBit KI HEK293(LgBit) Cells; host or cells: HEK293(LgBit) knock-in cells
Sequence (P48729 whole entry): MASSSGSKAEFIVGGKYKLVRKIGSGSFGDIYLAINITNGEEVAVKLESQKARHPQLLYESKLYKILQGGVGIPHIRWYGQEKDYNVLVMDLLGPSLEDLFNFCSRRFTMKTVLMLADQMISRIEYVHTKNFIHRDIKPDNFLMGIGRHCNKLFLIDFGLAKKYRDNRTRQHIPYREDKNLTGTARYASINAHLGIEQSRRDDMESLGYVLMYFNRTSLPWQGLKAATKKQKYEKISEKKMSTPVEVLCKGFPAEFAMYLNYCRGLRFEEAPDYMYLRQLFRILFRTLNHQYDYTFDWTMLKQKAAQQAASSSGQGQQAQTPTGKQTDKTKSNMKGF
Sequence (Q96SW2 whole entry): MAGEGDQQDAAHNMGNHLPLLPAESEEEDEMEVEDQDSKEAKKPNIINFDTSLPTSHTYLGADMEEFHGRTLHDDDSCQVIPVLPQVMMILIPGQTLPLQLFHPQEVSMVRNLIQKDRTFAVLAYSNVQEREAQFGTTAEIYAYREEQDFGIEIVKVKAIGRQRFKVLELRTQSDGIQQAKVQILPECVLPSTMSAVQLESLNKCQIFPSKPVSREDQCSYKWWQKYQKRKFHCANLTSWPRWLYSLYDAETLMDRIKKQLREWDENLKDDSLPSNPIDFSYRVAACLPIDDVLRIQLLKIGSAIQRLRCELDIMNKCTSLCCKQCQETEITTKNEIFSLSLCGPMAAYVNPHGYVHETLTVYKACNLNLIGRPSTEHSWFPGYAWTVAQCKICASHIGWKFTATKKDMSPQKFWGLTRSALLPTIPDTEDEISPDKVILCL
Sequence (Q16531 whole entry partner): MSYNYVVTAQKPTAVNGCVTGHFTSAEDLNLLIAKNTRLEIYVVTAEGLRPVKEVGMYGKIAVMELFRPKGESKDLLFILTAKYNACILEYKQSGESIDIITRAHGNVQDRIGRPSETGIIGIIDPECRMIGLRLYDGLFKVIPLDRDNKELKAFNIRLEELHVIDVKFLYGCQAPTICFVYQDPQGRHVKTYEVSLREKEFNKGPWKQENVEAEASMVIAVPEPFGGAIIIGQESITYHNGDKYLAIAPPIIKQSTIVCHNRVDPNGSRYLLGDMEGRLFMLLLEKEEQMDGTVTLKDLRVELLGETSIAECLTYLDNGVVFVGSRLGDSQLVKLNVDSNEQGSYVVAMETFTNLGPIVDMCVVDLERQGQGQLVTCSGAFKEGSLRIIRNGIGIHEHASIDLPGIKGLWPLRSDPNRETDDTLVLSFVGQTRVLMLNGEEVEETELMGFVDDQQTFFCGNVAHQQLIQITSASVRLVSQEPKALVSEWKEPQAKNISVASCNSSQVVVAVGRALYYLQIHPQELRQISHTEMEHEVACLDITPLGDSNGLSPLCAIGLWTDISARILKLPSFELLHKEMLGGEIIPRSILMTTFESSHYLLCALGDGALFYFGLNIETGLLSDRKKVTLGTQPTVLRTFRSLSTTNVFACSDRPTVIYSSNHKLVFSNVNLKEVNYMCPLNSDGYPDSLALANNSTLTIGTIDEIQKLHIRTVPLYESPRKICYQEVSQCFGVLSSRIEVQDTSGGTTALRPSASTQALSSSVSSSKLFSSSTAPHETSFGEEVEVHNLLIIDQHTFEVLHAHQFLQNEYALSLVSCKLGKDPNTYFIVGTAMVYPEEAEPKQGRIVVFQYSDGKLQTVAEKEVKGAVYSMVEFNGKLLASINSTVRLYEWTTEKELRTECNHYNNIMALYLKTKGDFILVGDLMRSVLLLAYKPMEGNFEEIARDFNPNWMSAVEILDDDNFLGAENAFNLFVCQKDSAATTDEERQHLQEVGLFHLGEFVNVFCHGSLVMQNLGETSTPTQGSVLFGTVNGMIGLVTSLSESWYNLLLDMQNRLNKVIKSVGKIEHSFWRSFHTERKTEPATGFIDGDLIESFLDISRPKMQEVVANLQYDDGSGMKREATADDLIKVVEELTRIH
Test: HiBiT degradation assay, CK1α, Procedure A
Format: cell-based
Assay context: six hours
Measurement type: CK1α Ymin

[[record]]
molecule = "Cn1cnc(-c2ccc3c(c2)CN(C2CCC(=O)NC2=O)C3=O)c1-c1ccc(-n2cccn2)cc1 (stereo not shown)"
recorded_measurement = "C (C = 0-10% remaining)"

[[record]]
molecule = "O=C1CCC(N2Cc3cc(-c4cc(-c5ccccc5)n(CC(F)(F)F)n4)ccc3C2=O)C(=O)N1 (stereo not shown)"
recorded_measurement = "C (C = 0-10% remaining)"


###

Tested on: CK1α (Homo sapiens, UniProt P48729+Q96SW2)
Construct: CSNK1A1-HiBit KI HEK293(LgBit) Cells; host or cells: HEK293(LgBit) knock-in cells
Test: HiBiT degradation assay, CK1α, Procedure A
Type: cell-based
Assay context: six hours incubation
Measurement type: DC50

[[record]]
compound = "COc1cc(-c2c(-c3ccc4c(c3)CN(C3CCC(=O)NC3=O)C4=O)ncn2C)ccc1Cl (centres unmarked)"
recorded_measurement = "≥ 25 nM"

[[record]]
compound = "Cc1ccc(-c2c(-c3ccc4c(c3)CN(C3CCC(=O)NC3=O)C4=O)ncn2C)cc1Cl (centres unmarked)"
recorded_measurement = "< 25 nM"

[[record]]
compound = "O=C1CCC(N2Cc3cc(-c4cnn(CC(F)(F)F)c4-c4ccccc4)ccc3C2=O)C(=O)N1 (centres unmarked)"
recorded_measurement = "< 25 nM"

[[record]]
compound = "O=C1CCC(N2Cc3cc(-c4cnoc4-c4ccccc4)ccc3C2=O)C(=O)N1 (centres unmarked)"
recorded_measurement = "< 25 nM"

[[record]]
compound = "Cn1ncc(-c2ccc3c(c2)CN(C2CCC(=O)NC2=O)C3=O)c1-c1ccc(N)cc1 (centres unmarked)"
recorded_measurement = "< 25 nM"


So, O=C1CCC(N2Cc3cc(-c4cc(-c5ccccc5)n(C(F)F)n4)ccc3C2=O)C(=O)N1 (centres unmarked) ? Its DC50 was ≥ 25 nM

Memo: COc1ccc(-c2c(-c3ccc4c(c3)CN(C3CCC(=O)NC3=O)C4=O)cnn2C)cc1Cl (centres unmarked) , reported DC50: < 25 nM

Lab book: DC50 of COc1ccc(-c2c(-c3ccc4c(c3)CN(C3CCC(=O)NC3=O)C4=O)ncn2C)c(C)c1 (centres unmarked) noted as < 25 nM

###

compounds and their reported DC50
Tested on: GSPT1 (Homo sapiens, UniProt P15170+Q96SW2)
Sequence (P15170 whole entry): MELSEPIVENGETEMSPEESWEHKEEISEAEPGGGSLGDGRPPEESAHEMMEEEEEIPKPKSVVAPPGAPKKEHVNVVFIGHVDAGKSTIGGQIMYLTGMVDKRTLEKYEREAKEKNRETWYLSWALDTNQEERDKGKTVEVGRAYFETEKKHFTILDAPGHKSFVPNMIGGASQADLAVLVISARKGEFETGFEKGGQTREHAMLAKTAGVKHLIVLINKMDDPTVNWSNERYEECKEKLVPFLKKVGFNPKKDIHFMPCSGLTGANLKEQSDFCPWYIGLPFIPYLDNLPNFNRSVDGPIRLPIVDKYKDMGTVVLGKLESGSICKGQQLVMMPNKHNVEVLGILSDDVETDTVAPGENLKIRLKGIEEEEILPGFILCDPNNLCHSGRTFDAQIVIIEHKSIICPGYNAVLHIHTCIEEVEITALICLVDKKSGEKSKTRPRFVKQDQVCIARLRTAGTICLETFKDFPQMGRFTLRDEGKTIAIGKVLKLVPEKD
Sequence (Q96SW2 whole entry): as the sequence (Q96SW2 whole entry) above
Sequence (Q16531 whole entry partner): as the sequence (Q16531 whole entry partner) above
Test: HiBiT degradation assay, GSPT1, Procedure A
Assay type: cell-based
Parameters: HiBit-GSPT1 KI HEK293(LgBit) Cells; host or cells: HEK293(LgBit) knock-in cells
Assay context: six hours incubation

Check out these entries, answers already filled in.
[[record]]
compound = "O=C1CCC(N2Cc3cc(-c4nc[nH]c4-c4ccccc4)ccc3C2=O)C(=O)N1 (stereo not shown)"
recorded_measurement = "< 25 nM"

[[record]]
compound = "Cn1ncc(-c2ccc3c(c2)CN(C2CCC(=O)NC2=O)C3=O)c1-c1ccc(Oc2cccnc2)cc1 (stereo not shown)"
recorded_measurement = "≥ 25 nM"

[[record]]
compound = "CC(F)(F)Cn1ncc(-c2ccc3c(c2)CN(C2CCC(=O)NC2=O)C3=O)c1-c1ccccc1 (stereo not shown)"
recorded_measurement = "≥ 25 nM"


The value of DC50 measured for the compound COc1cccc(-c2c(-c3ccc4c(c3)CN(C3CCC(=O)NC3=O)C4=O)ncn2C)c1Cl (stereo not shown) turned out to be < 25 nM

Notebook: Cn1cnc(-c2ccc3c(c2)CN(C2CCC(=O)NC2=O)C3=O)c1-c1ccc(C#N)cc1F (stereo not shown) , DC50 read as ≥ 25 nM

// data source = patent US20240158370A1
